The measured values listed here are drawn from patent US20070185115A1.

- study-target: CCKA receptor (Rattus norvegicus, UniProt P30551)
- Construct: Pancreatic membranes were prepared in a similar way but by Charpentier et al; from tissue; host or cells: rat pancreas membranes
- Sequence (P30551 whole entry): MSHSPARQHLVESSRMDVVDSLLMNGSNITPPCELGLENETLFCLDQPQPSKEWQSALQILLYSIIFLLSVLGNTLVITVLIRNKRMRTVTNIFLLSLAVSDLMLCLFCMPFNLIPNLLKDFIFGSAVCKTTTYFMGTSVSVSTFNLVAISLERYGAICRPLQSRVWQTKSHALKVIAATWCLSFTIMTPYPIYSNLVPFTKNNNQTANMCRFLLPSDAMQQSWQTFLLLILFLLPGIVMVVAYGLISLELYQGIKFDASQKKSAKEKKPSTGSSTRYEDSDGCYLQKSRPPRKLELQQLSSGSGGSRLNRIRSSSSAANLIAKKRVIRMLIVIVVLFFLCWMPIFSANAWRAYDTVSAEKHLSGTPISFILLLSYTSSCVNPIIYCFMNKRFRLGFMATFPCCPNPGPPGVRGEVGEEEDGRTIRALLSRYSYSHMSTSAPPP
- test-details: 125I-CCK-8 receptor binding assay, CCKA (rat pancreas membranes)
- conditions: Table 4; ratio of CCKB and CCKA IC50 values
Everything with Ratio A/B lower than 2 is not fulfilled; everything else, including exactly 2, is fulfilled.

{"compound": "Cc1c(NC(=O)CCc2c[nH]c3ccccc23)c(=O)n(-c2ccccc2)n1-c1ccccc1 [Example 39]", "study-target": "CCKA receptor (Rattus norvegicus, UniProt P30551)", "assigned-label": "fulfilled"}
{"compound": "Cc1c(NC(=O)CCCc2c[nH]c3ccccc23)c(=O)n(-c2ccccc2)n1-c1ccccc1 [Example 40]", "study-target": "CCKA receptor (Rattus norvegicus, UniProt P30551)", "assigned-label": "not fulfilled"}
{"compound": "Cc1c(NC(=O)c2cc3ccccc3[nH]2)c(=O)n(-c2ccccc2)n1-c1ccccc1 [Example 36]", "study-target": "CCKA receptor (Rattus norvegicus, UniProt P30551)", "assigned-label": "not fulfilled"}
{"compound": "Cc1c(NC(=O)Cc2c[nH]c3ccccc23)c(=O)n(-c2ccccc2)n1-c1ccccc1 [Example 38]", "study-target": "CCKA receptor (Rattus norvegicus, UniProt P30551)", "assigned-label": "fulfilled"}

Alright, here's another compound for you.
Challenge: Can Cc1c(NC(=O)c2c[nH]c3ccccc23)c(=O)n(-c2ccccc2)n1-c1ccccc1 [Example 37] be said to have Ratio A/B at or above 2?
Response given: not fulfilled
